# study-target: UniProt P18089
# Sequence (P18089 whole entry): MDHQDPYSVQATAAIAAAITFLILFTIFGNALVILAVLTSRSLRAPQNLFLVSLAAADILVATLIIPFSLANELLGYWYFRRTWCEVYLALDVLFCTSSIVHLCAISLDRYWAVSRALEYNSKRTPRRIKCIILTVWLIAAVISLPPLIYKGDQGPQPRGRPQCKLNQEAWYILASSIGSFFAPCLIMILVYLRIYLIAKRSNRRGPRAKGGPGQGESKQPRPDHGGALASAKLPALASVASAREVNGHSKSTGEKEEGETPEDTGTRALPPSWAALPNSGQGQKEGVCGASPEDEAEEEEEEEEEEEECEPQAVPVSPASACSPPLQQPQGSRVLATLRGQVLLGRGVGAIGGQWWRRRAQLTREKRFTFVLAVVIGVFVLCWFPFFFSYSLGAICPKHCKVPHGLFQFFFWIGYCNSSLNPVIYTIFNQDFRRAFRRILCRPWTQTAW
# assay-summary: Displacement of [3H]rawolscine from human cloned adrenergic alpha-2B receptor transfected in CHO cells
Answer each item with its documented pKi.
// scale note: pKi = -log10(conc_M); give the bare number

q: Look up pKi: COc1cc2c(cc1OC)C1=NO[C@@H](CN3CCN(C/C(C)=C/c4ccc(F)cc4)CC3)[C@@H]1CO2 (racemic)
a: 8.08

q: What does the data say about its pKi? Entry: COc1cc2c(cc1OC)C1=NOC(CN3CCN(C/C(C)=C/c4ccccc4)CC3)C1CN2 (racemic)
a: 7.92

q: Returns the measured pKi for the input compound. Input: COc1cc2c(cc1OC)C1=NO[C@@H](CN3CCN(C/C(C)=C/c4ccc(F)cc4)CC3)[C@@H]1CO2 (stereo in doubt; form 2)
a: 7.68

q: Dear colleague, I am looking for the recorded pKi of the following compound: COc1cc2c(cc1OC)C1=NOC(CN3CCN(C/C=C/c4ccc(F)cc4)CC3)C1CO2 (racemic)
a: 7.60

q: Fill in: pKi of COc1cc2c(cc1OC)C1=NOC(CN3CCN(C/C(C)=C/c4ccccc4)CC3)C1CN2 (single isomer, unassigned; (-)) is ___
a: 7.59

q: State the recorded pKi for this entry: COc1cc2c(cc1OC)C1=NO[C@@H](CN3CCN(C/C(C)=C/c4ccc(F)cc4)CC3)[C@@H]1CO2 (stereo in doubt; form 1)
a: 8.82

q: Would you kindly share the measured pKi for COc1cc2c(cc1OC)C1=NOC(CN3CCN(C/C(C)=C/c4ccccc4)CC3)C1CN2 (single isomer, unassigned; (+)) ?
a: 8.35

q: Fill in the blank: the reported pKi of COc1cc2c(cc1OC)C1=NOC(CN3CCN(C/C=C/c4ccc(F)cc4)CC3)C1CO2 (cis isomer) is ____.
a: 6.79

q: Consider the compound COc1cc2c(cc1OC)C1=NOC(CN3CCN(C/C=C/c4ccc(F)cc4)CC3)C1CO2 (single isomer, unassigned; (+)) and give its measured pKi.
a: 7.85

* * *

# study-target: UniProtKB P08913
# Sequence (P08913 whole entry): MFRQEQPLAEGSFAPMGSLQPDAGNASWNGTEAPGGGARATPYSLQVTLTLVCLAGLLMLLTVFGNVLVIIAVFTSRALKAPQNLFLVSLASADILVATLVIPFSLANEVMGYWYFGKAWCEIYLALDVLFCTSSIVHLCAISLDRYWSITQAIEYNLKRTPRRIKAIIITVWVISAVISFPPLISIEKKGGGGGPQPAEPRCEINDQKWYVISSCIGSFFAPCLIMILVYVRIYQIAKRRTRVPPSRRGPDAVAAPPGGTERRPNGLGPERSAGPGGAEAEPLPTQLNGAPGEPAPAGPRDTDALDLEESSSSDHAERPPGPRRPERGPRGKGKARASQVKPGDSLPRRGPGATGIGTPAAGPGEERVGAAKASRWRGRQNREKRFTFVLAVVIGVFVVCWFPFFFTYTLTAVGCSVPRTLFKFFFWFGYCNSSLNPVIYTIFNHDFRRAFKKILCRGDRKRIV
# assay-summary: Displacement of [3H]rawolscine from human cloned adrenergic alpha2A receptor transfected in CHO cells
I'd appreciate it if you could supply log10 of Ki values for the items below.
All values: base-10 log of Ki in nM.

q: Can you look up the measured log10 of Ki of COc1cc2c(cc1OC)C1=NOC(CN3CCN(C/C=C/c4ccc(F)cc4)CC3)C1CO2 (single isomer, unassigned; (+)) for me?
a: 1.73

q: Value lookup for log10 of Ki; key = COc1cc2c(cc1OC)C1=NO[C@@H](CN3CCN(C/C(C)=C/c4ccc(F)cc4)CC3)[C@@H]1CO2 (stereo in doubt; form 1)
a: 0.49

q: May I ask what log10 of Ki has been recorded for COc1cc2c(cc1OC)C1=NO[C@@H](CN3CCN(C/C(C)=C/c4ccc(F)cc4)CC3)[C@@H]1CO2 (stereo in doubt; form 2) ?
a: 1.45

q: // lookup log10 of Ki for COc1cc2c(cc1OC)C1=NOC(CN3CCN(C/C=C/c4ccc(F)cc4)CC3)C1CO2 (racemic)
a: 0.95

q: Query: log10 of Ki; subject: COc1cc2c(cc1OC)C1=NOC(CN3CCN(C/C=C/c4ccc(F)cc4)CC3)C1CO2 (cis isomer)
a: 2.07

* * *

Kindly supply the reported ED50 values for the records listed here.
# study-target: Adrenergic receptor alpha-2 (Rattus norvegicus) (UniProt P22086+P19328+P22909)
# assay-summary: Reversal of medetomidine-induced loss of righting reflex in po dosed Wistar rat after 1hr
# Type: functional, organism-based

q: Which ED50 reading was recorded for the molecule COc1cc2c(cc1OC)C1=NOC(CN3CCN(C/C(C)=C/c4ccccc4)CC3)C1CN2 (single isomer, unassigned; (-)) ?
a: > 10 mg/kg

q: Recorded ED50 for COc1cc2c(cc1OC)C1=NOC(CN3CCN(C/C(C)=C/c4ccccc4)CC3)C1CN2 (single isomer, unassigned; (+)) , please?
a: 0.63 mg/kg

q: Requested field: ED50. Item: COc1cc2c(cc1OC)C1=NO[C@@H](CN3CCN(C/C(C)=C/c4ccc(F)cc4)CC3)[C@@H]1CO2 (stereo in doubt; form 1)
a: 1.3 mg/kg

q: Find the recorded ED50 belonging to COc1cc2c(cc1OC)C1=NOC(CN3CCN(C/C=C/c4ccc(F)cc4)CC3)C1CO2 (single isomer, unassigned; (+)) and report it.
a: 3.5 mg/kg

* * *

# study-target: Norepinephrine transporter (Rattus norvegicus, UniProt Q9WTR4)
# Sequence (Q9WTR4 whole entry): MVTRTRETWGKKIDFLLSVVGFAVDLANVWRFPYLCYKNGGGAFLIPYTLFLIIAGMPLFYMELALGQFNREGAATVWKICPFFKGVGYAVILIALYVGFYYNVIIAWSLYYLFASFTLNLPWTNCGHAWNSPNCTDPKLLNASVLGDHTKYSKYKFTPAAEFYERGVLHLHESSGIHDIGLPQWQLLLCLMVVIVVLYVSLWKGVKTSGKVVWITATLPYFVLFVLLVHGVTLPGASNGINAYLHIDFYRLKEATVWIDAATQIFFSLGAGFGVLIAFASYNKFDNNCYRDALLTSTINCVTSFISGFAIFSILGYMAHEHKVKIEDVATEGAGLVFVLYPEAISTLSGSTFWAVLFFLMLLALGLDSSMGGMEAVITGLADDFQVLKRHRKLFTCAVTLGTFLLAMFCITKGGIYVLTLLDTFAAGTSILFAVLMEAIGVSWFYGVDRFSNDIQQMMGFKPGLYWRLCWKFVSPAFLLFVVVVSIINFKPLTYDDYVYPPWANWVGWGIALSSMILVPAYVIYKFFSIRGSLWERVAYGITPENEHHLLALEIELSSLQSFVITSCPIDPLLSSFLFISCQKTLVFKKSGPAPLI
measurement-label: Ki (µM)
Write down the numeric answer in µM and omit the unit.

q: Using the record for COc1cc2c(cc1OC)C1=NO[C@@H](CN3CCN(C/C(C)=C/c4ccc(F)cc4)CC3)[C@@H]1CO2 (stereo in doubt; form 1) , report its Ki.
a: 0.07

* * *

# study-target: Alpha-1A adrenergic receptor (Homo sapiens, UniProt P35348)
# Sequence (P35348 whole entry): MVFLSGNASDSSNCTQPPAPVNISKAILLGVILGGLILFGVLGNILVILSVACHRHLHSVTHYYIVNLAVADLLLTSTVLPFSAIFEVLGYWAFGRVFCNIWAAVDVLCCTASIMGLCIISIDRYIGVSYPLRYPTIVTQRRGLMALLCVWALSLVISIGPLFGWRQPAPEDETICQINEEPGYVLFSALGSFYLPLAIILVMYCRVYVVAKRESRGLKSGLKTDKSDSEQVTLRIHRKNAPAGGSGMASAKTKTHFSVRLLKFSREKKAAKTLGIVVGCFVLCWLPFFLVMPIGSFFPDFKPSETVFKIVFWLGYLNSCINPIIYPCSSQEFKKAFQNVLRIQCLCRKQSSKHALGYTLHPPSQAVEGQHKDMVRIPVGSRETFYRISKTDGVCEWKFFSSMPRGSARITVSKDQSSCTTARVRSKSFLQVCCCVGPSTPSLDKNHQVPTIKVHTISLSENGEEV
measurement-label: pKi
Quick note: pKi values are minus log10 of concentrations in mol/L.

q: Would you mind telling me what pKi value was observed for COc1cc2c(cc1OC)C1=NO[C@@H](CN3CCN(C/C(C)=C/c4ccc(F)cc4)CC3)[C@@H]1CO2 (stereo in doubt; form 1) ?
a: 6.90

* * *

# study-target: Sodium-dependent serotonin transporter (Homo sapiens)
# Sequence (P31645 whole entry): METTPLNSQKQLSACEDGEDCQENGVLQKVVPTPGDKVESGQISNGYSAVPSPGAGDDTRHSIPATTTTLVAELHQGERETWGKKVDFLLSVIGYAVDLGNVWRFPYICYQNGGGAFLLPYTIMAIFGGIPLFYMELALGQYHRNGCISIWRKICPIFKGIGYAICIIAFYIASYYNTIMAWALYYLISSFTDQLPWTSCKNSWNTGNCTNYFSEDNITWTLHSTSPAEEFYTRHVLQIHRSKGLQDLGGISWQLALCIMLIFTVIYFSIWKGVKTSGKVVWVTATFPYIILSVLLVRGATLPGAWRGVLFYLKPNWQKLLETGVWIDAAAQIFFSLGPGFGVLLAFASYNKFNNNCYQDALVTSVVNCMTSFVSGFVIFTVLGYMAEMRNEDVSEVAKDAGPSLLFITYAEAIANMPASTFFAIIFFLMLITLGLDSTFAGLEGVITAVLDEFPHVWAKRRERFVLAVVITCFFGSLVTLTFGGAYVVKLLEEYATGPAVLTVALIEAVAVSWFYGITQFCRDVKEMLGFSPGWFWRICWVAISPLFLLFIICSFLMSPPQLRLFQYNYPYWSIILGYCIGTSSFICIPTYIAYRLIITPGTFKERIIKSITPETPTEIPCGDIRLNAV
# assay-summary: Displacement of [3H]paroxetine from human cloned 5HTT receptor transfected in CHO cells
Task for the reader: assign each of the following molecules its reported Ki.
Form entry: value (nM) — number only.

q: Form field: reported Ki of COc1cc2c(cc1OC)C1=NOC(CN3CCN(C/C=C/c4ccc(F)cc4)CC3)C1CO2 (single isomer, unassigned; (+))
a: 2.1

q: Which Ki value is on record for COc1cc2c(cc1OC)C1=NOC(CN3CCN(C/C(C)=C/c4ccccc4)CC3)C1CN2 (single isomer, unassigned; (-)) ?
a: 24

q: Which Ki is reported for this molecule? COc1cc2c(cc1OC)C1=NOC(CN3CCN(C/C(C)=C/c4ccccc4)CC3)C1CN2 (single isomer, unassigned; (+))
a: 79

q: Quick check: Ki of COc1cc2c(cc1OC)C1=NOC(CN3CCN(C/C=C/c4ccc(F)cc4)CC3)C1CO2 (racemic) ?
a: 5.6

q: Give the measured Ki of COc1cc2c(cc1OC)C1=NOC(CN3CCN(C/C(C)=C/c4ccccc4)CC3)C1CN2 (racemic) .
a: 8.9

q: I'd like to know its Ki. The molecule in question is COc1cc2c(cc1OC)C1=NOC(CN3CCN(C/C=C/c4ccc(F)cc4)CC3)C1CO2 (cis isomer)
a: 14
